- SUBJECT OF TEST: UniProt:P55201
- Sequence (whole entry): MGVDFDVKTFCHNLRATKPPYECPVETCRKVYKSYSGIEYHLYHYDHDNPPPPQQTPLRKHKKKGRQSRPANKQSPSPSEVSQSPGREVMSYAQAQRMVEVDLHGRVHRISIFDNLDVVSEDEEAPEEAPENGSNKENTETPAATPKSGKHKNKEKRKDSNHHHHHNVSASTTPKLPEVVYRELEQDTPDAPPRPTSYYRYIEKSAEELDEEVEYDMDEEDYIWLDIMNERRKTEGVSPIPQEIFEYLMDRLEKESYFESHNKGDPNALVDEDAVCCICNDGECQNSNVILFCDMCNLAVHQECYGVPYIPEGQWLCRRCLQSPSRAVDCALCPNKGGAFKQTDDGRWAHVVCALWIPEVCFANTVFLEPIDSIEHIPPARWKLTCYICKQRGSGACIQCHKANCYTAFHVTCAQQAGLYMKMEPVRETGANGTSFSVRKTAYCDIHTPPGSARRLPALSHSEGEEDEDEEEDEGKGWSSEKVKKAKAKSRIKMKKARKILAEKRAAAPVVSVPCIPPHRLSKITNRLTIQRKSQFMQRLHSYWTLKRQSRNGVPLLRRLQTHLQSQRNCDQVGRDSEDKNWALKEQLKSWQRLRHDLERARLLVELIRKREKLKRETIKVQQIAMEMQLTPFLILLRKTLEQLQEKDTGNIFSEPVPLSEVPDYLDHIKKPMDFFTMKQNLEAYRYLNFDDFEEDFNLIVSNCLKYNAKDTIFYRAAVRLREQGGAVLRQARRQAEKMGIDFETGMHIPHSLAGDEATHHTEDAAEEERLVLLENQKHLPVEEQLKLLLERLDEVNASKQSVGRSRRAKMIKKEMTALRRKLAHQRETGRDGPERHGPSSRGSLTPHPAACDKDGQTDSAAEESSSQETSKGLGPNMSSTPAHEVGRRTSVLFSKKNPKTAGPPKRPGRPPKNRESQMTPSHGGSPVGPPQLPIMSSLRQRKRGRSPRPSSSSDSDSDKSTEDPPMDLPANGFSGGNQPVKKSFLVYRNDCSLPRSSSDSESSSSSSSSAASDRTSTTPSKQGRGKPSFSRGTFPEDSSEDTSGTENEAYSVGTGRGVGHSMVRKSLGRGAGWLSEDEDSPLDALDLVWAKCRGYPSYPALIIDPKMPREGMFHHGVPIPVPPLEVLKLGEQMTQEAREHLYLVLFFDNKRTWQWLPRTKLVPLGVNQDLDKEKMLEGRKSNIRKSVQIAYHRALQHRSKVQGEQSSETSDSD
- MEASUREMENT CONDITIONS: Compound concentration 20.0 uM
Non-standard residues stand in square brackets, D forms with d. Residues, ends and D or L forms follow the SMILES beside them. *: point of attachment. Benzoyl(4-OPh) = O=C(c1ccc(Oc2ccccc2)cc1)*; Lys(Et2) = CCN(CC)CCCC[C@H](N)C(=O)O; d(aIle) = CC[C@H](C)[C@@H](N)C(=O)O; Gly(cPent) = N[C@H](C(=O)O)C1CCCC1; NH(propargyl) = C#CCN*
REPORTED PROPERTY: ΔTm (°C)
Respond with the bare value in °C.

COMPOUND	READOUT NUMBER
CN1CC(=O)N2[C@H](c3ccc4c(c3)OCO4)c3[nH]c4ccccc4c3C[C@@H]2C1=O	0.06
CC[C@H](C)[C@H](NC(C)=O)C(=O)N[C@@H](CCC(=O)O)C(=O)N[C@H](C(=O)N[C@H](C=O)CC(=O)O)[C@@H](C)O (Ac-IETD-aldehyde)	-0.66
COc1cc(C(=O)NCC2(N(C)C)CCCC2)cc(OC)c1OCc1ccccc1	2.2
Cc1c(CN2CCC(Nc3ncnc4sc(CC(F)(F)F)cc34)CC2)ccc2c1cc(C#N)n2Cc1cn[nH]c1	2.02
CCc1oc2ccccc2c1C(=O)c1cc(Br)c(O)c(Br)c1	-11

Kindly state the measured ΔTm obtained for C#CCNC(=O)[C@H](CO)NC(=O)[C@H](CCCCN(CC)CC)NC(=O)[C@H](NC(=O)[C@@H](NC(=O)c1ccc(Oc2ccccc2)cc1)C1CCCC1)[C@@H](C)CC ({Benzoyl(4-OPh)}-[Gly(cPent)][d(aIle)][Lys(Et2)]S-{NH(propargyl)}) with UniProt:P55201.
-0.64

Kindly state the measured ΔTm obtained for CC(C)C(=O)SCCCCCCC(=O)Nc1nc(-c2ccccc2)cs1 with UniProt:P55201.
-1.14

====

- SUBJECT OF TEST: Peregrin (Homo sapiens) (UniProt P55201)
- MEASUREMENT CONDITIONS: Compound concentration 20.0 uM
REPORTED PROPERTY: ΔTm (°C)
Respond with the bare value in °C.

COMPOUND	SUBJECT OF TEST	MEASUREMENT UNIT	ΔTm
CCCCCCCCCCCCC/C=C/[C@@H](O)[C@H](CO)NC(=O)CBr	Peregrin (Homo sapiens) (UniProt P55201)	°C	-2.74
CC(C)Oc1ccc2c(=O)[nH]c3sccc3c2c1	Peregrin (Homo sapiens) (UniProt P55201)	°C	-0.93
C[C@]12O[C@H](C[C@]1(O)CO)n1c3ccccc3c3c4c(c5c6ccccc6n2c5c31)CNC4=O	Peregrin (Homo sapiens) (UniProt P55201)	°C	-0.7
Cc1c(Nc2ccc(S(=O)(=O)N3CCN(C)CC3)cc2F)nc2ccc(-c3cnn(C4CC4)c3)cn2c1=O	Peregrin (Homo sapiens) (UniProt P55201)	°C	0.83
Nc1ccccc1NC(=O)c1ccc(CNc2nccc(-c3cccnc3)n2)cc1	Peregrin (Homo sapiens) (UniProt P55201)	°C	-0.72

What does the data say about its ΔTm? Entry: Cc1cc(OCCCNCCC(N)=O)ccc1Cc1c(O[C@@H]2O[C@H](CO)[C@@H](O)[C@H](O)[C@H]2O)n[nH]c1C(C)C
1.37

What does the data say about its ΔTm? Entry: O=C1c2ccccc2C(=O)c2oc(-c3cccnc3)nc21
2.45

====

Listing: ΔTm of selected compounds
- SUBJECT OF TEST: Fibroblast growth factor receptor 2 (Homo sapiens) (UniProt P21802)
- Sequence (P21802 22-821 limits assumed): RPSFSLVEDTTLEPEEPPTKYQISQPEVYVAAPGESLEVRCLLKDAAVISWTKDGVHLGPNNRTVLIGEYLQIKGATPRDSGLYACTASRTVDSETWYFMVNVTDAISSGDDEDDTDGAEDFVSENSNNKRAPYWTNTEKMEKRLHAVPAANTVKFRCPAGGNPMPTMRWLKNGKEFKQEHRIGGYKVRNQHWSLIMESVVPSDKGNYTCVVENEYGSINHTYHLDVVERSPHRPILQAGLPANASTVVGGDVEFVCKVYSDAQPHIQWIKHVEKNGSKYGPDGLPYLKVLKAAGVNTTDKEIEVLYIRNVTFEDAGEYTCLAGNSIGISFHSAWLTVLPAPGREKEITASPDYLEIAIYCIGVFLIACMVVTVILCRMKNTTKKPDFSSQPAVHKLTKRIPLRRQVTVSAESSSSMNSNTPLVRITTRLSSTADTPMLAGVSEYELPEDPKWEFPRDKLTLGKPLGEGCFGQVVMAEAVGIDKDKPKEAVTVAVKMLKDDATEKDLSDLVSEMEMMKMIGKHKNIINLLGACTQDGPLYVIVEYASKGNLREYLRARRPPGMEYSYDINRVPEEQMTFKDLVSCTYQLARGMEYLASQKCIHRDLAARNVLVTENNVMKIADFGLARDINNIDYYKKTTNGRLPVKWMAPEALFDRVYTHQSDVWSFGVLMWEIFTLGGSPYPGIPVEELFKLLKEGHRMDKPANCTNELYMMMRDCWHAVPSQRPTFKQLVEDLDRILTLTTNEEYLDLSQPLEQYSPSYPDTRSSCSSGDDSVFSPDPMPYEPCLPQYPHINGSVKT
- MEASUREMENT CONDITIONS: Compound concentration 20.0 uM
- Description: Thermal Shift Assay. Domain: start/stop: T457-E768
Residues, ends and D or L forms follow the SMILES beside them. *: point of attachment. Cbz = O=C(OCc1ccccc1)*; CH2F = FC*
Respond with the bare value in °C.

COMPOUND	MEASUREMENT UNIT	ΔTm
O=C(Nc1ccccc1C(=O)O)c1cc(S(=O)(=O)c2ccccc2)ccc1Cl	°C	-0.48

What does the data say about its ΔTm? Entry: Cc1cc(N2C[C@@H](C)N[C@@H](C)C2)ncc1-c1ccc(-c2nc3c(ccn3C)c(=O)[nH]2)cc1
0.8

What does the data say about its ΔTm? Entry: CCCCOc1c(OC)cc(C(=O)NCC2(N(C)C)CCOCC2)cc1OC
-0.02

What does the data say about its ΔTm? Entry: COc1cc2c(NCC3CCN(C)CC3)cc(-c3ccc(C)o3)nc2cc1OCCCN1CCCC1
0.16

What does the data say about its ΔTm? Entry: CNc1nccc(CN([C@H]2CC[C@H](N)CC2)S(=O)(=O)c2ccc(S(=O)(=O)N(Cc3ccc(Cl)cc3)C3CCCC3)cc2)n1
-1.14

What does the data say about its ΔTm? Entry: COC(=O)CC[C@H](NC(=O)[C@H](C)NC(=O)OCc1ccccc1)C(=O)N[C@H](C(=O)N[C@@H](CC(=O)OC)C(=O)CF)C(C)C (Cbz-AE(OMe)VD(OMe)-CH2F)
0.54

What does the data say about its ΔTm? Entry: CC(C)(O)c1ccc(-c2nc3c(F)cc(F)cc3c(=O)[nH]2)cc1
-3.32

What does the data say about its ΔTm? Entry: COc1cc([C@@H]2Oc3c(O)cc([C@H]4Oc5cc(O)cc(O)c5C(=O)[C@@H]4O)cc3[C@H]2CO)ccc1O
-0.46

====

- SUBJECT OF TEST: Peregrin (Homo sapiens) (UniProt P55201)
- MEASUREMENT CONDITIONS: Compound concentration 20.0 uM
Category scheme (ΔTm): category 1: < -0.3 °C; category 2: ≥ -0.3 °C and < 1 °C; category 3: ≥ 1 °C

For this compound, which bin applies? COc1ccc(-n2c(SCCCN3C(=O)c4cccc5cccc(c45)C3=O)nnc2-c2ccncc2)cc1
category 2

For this compound, which bin applies? CC(C)c1cc(C(=O)N2CC[C@@H](NC(=O)C3CC3)C2)[nH]n1
category 1

====

- SUBJECT OF TEST: UniProt:P55201
- MEASUREMENT CONDITIONS: Compound concentration 20.0 uM
Think of -0.1 °C as a floor: if ΔTm stands on it or above, it is Condition met; beneath it, Condition not met.

COMPOUND	LABEL VALUE
C[C@]12CCCN1CC1=NNC(=O)c3cc(F)cc4[nH]c2c1c34	Condition not met

Answer whether ΔTm of O=C(Oc1cccc(F)c1OC(=O)c1cccc(O)c1)c1cccc(O)c1 is greater than or equal to -0.1 °C.
Condition met

Answer whether ΔTm of CC(=O)N1CCC(c2ccc(C(=O)NC(=N)N)cc2C(F)(F)F)CC1 is greater than or equal to -0.1 °C.
Condition met

Answer whether ΔTm of CN(CCCN1c2ccccc2CCc2ccccc21)CC(=O)c1ccc(Cl)cc1 is greater than or equal to -0.1 °C.
Condition not met

Answer whether ΔTm of CNC(=O)N1CCc2c(c(N3CCCc4cc(-c5cnn(C)c5)c(C(F)F)cc43)nn2C2CCOCC2)C1 is greater than or equal to -0.1 °C.
Condition not met

Answer whether ΔTm of C[C@H](NC(=O)CCc1nc2ccccc2c(=O)[nH]1)c1ccccc1 is greater than or equal to -0.1 °C.
Condition not met

Answer whether ΔTm of COc1cccc(Nc2c(C(N)=O)cnc3c(C)cc(S(=O)(=O)c4cccc(C(=O)N(C)C)c4)cc23)c1 is greater than or equal to -0.1 °C.
Condition not met

Answer whether ΔTm of C[C@]1(c2nc3c(C(N)=O)cccc3[nH]2)CCCN1 is greater than or equal to -0.1 °C.
Condition met

Answer whether ΔTm of CN(C)CCCN(CC[C@H](N)C(=O)O)C[C@H]1O[C@@H](n2cnc3c(N)ncnc32)[C@H](O)[C@@H]1O is greater than or equal to -0.1 °C.
Condition not met

Answer whether ΔTm of CC(=O)OCCN1C(=O)c2c(C)nc3ccc(S(=O)(=O)N4CCOCC4)cc3c2C1=O is greater than or equal to -0.1 °C.
Condition not met

Answer whether ΔTm of O=C(NO)c1ccc(CN2CCCc3cc(Cl)ccc32)cc1 is greater than or equal to -0.1 °C.
Condition not met

Answer whether ΔTm of O=C(NCc1ccc(Cl)cc1)C1CCN(S(=O)(=O)c2cc(Cl)cc(Cl)c2)CC1 is greater than or equal to -0.1 °C.
Condition met

Answer whether ΔTm of Cc1nn2c(nc(O)c3cccnc32)c1C#N is greater than or equal to -0.1 °C.
Condition met

Answer whether ΔTm of CCCC[C@]1(CC)CS(=O)(=O)c2cc(CNC(CC(=O)O)CC(=O)O)c(OC)cc2[C@@H](c2ccccc2)N1 is greater than or equal to -0.1 °C.
Condition met

Answer whether ΔTm of COc1ccc(CC[C@H]2CCC[C@@H](CCc3ccc(OC)cc3)N2C[C@@H](O)CO)cc1 is greater than or equal to -0.1 °C.
Condition met

The values you see were collected from ChEMBL document CHEMBL5724796.
